Cited source for all entries: patent US11168073B2

target_under_test: recombinant human VAP-1 (Homo sapiens, UniProt Q16853)
Construct: purchased R&D systems
Sequence (Q16853 whole entry): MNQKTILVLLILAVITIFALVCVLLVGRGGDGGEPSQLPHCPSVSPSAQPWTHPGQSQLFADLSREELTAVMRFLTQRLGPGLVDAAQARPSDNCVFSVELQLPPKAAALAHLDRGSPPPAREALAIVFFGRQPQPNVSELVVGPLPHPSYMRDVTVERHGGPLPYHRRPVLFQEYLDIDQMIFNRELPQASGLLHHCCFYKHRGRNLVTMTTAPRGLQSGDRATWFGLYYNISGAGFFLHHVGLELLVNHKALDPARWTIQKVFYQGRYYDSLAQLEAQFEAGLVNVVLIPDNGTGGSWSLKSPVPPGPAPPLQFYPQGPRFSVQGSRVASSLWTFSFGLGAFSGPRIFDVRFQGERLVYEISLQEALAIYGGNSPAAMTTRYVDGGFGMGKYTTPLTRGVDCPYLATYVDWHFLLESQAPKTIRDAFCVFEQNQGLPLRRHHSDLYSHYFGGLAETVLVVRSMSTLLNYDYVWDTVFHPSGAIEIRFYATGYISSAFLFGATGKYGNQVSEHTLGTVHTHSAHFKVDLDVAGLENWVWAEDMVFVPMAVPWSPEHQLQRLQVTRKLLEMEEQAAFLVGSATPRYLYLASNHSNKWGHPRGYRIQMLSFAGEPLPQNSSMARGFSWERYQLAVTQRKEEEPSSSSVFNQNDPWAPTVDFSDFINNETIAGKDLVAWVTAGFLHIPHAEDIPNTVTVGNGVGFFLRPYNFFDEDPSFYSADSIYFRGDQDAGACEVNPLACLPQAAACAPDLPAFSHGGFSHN
assay_summary: Activity evaluation on recombinant human VAP-1 (Amplex Red/HRP-coupled hydrogen peroxide assay, benzylamine substrate)
Type: biochemical
experimental_setup: recombinant human VAP-1, benzylamine substrate; read-out: Inhibitory Activity (IC50, nM) human VAP-1
Where a name gives a salt, the structure may show the parent alone.
readout_kind: IC50 (nM)
Numeric answer only, unit nM assumed.

Past entries and their recorded results:
NCC(Cn1ncn(Cc2cc(-c3ccc4c(c3)CCC(=O)N4)cs2)c1=O)=C(F)F [Example 192, Trifluoroacetate]    0.4
CC(=O)N1CCN(c2ccc(-c3csc(Cn4cnn(CC(CN)=C(F)F)c4=O)c3)cc2)CC1 [Example 188, Trifluoroacetate]    3.4
NCC(Cn1ncn(-c2cccc(-c3ccc(N4CCOCC4)nc3)n2)c1=O)=C(F)F [Example 215, Trifluoroacetate]    0.7

The record that follows has no IC50 shown yet.
**Q:** # get_value(readout='IC50', item= CCn1cc(-c2ccc(-c3csc(Cn4cnn(CC(CN)=C(F)F)c4=O)c3)cc2)cn1 [Example 288, Trifluoroacetate] )
**A:** 2.6

====

target_under_test: recombinant human VAP-1 (Homo sapiens, UniProt Q16853)
Construct: purchased R&D systems
assay_summary: Activity evaluation on recombinant human VAP-1 (Amplex Red/HRP-coupled hydrogen peroxide assay, benzylamine substrate)
Format: biochemical
experimental_setup: recombinant human VAP-1, benzylamine substrate; read-out: Inhibitory Activity (IC50, nM) human VAP-1
Structures can show the parent of a compound that is named as a salt.
readout_kind: log10 of IC50 (log10 of the value in nM)
Transform log10 | Measure IC50 | Unit nM

Past entries and their recorded results:
CC(=O)c1ccc(-c2cnc(-n3cnn(CC(CN)=C(F)F)c3=O)c(C)c2)s1 [Example 231, Trifluoroacetate]    -0.70
NCC(Cn1ncn(Cc2cc(-c3ccc4c(c3)COC(=O)N4)cs2)c1=O)=C(F)F [Example 191, Trifluoroacetate]    -0.52
CCn1cc(-c2ccc(Cn3cnn(CC(CN)=C(F)F)c3=O)cc2)ccc1=O [Example 270, Trifluoroacetate]    -0.22
CN1C(=O)CCc2cc(-c3cccc(Cn4cnn(CC(CN)=C(F)F)c4=O)c3)ccc21 [Example 276, Trifluoroacetate]    -0.30
NCC(Cn1ncn(Cc2cc3cc(-c4ccc(N5CCNCC5)cc4)ccc3s2)c1=O)=C(F)F [Example 206, Ditrifluoroacetate]    0.36

**Q:** # get_value(readout='log10 of IC50', item= Cc1cc(-c2cnc3[nH]ccc3c2)cnc1-n1cnn(CC(CN)=C(F)F)c1=O [Example 228, Trifluoroacetate] )
**A:** -0.22

**Q:** # get_value(readout='log10 of IC50', item= Cc1cc(-c2ccc(S(=O)(=O)N(C)C)cc2)cnc1-n1cnn(CC(CN)=C(F)F)c1=O [Example 238, trifluoroacetate] )
**A:** -0.85

**Q:** # get_value(readout='log10 of IC50', item= CN1Cc2cc(-c3csc(Cn4cnn(CC(CN)=C(F)F)c4=O)c3)ccc2NC1=O [Example 186, Trifluoroacetate] )
**A:** -0.30

**Q:** # get_value(readout='log10 of IC50', item= Cc1cc(C#Cc2ccc(N3CCOCC3)nc2)cnc1-n1cnn(CC(CN)=C(F)F)c1=O [Example 242, Trifluoroacetate] )
**A:** 0.00

**Q:** # get_value(readout='log10 of IC50', item= Cc1cc(C#Cc2cnc3c(c2)OCC(=O)N3)cnc1-n1cnn(CC(CN)=C(F)F)c1=O [Example 248, trifluoroacetate] )
**A:** 0.43

**Q:** # get_value(readout='log10 of IC50', item= Cc1cc(-c2ccc(N3CCOCC3)cc2)cnc1-n1cnn(CC(CN)=C(F)F)c1=O [Example 237, Trifluoroacetate] )
**A:** -0.38

**Q:** # get_value(readout='log10 of IC50', item= Cc1c(-c2ccc(S(C)(=O)=O)cc2)cccc1-n1cnn(CC(CN)=C(F)F)c1=O [Example 253, Trifluoroacetate] )
**A:** 0.45

**Q:** # get_value(readout='log10 of IC50', item= NCC(Cn1ncn(Cc2cc3ccc(-c4ccc(N5CCNCC5)cc4)cc3s2)c1=O)=C(F)F [Example 198, Ditrifluoroacetate] )
**A:** 0.66

**Q:** # get_value(readout='log10 of IC50', item= CN1C(=O)CCc2cc(-c3ccccc3Cn3cnn(CC(CN)=C(F)F)c3=O)ccc21 [Example 284, trifluoroacetate] )
**A:** 2.17

**Q:** # get_value(readout='log10 of IC50', item= NCC(Cn1ncn(Cc2sc(-c3ccc(N4CCNCC4)cc3)cc2F)c1=O)=C(F)F [Example 298, ditrifluoroacetate] )
**A:** 1.08

**Q:** # get_value(readout='log10 of IC50', item= COc1cc(-c2cnc(-n3cnn(CC(CN)=C(F)F)c3=O)c(C)c2)cc(OC)c1OC [Example 224, Trifluoroacetate] )
**A:** -0.10

**Q:** # get_value(readout='log10 of IC50', item= Cc1cc(-c2cccc(-c3cc[nH]n3)c2)cnc1-n1cnn(CC(CN)=C(F)F)c1=O [Example 232, Trifluoroacetate] )
**A:** -0.30

**Q:** # get_value(readout='log10 of IC50', item= CS(=O)(=O)c1ccc(-c2ccc3cc(Cn4cnn(CC(CN)=C(F)F)c4=O)sc3c2)cc1 [Example 197, trifluoroacetate] )
**A:** -0.10

**Q:** # get_value(readout='log10 of IC50', item= NCC(Cn1ncn(Cc2cc3ccc(-c4ccc(C(F)(F)F)nc4)cc3s2)c1=O)=C(F)F [Example 199, Trifluoroacetate] )
**A:** 0.23

**Q:** # get_value(readout='log10 of IC50', item= Cc1cc(-c2ccc3cc(Cn4cnn(CC(CN)=C(F)F)c4=O)sc3c2)cc2c1NC(=O)CC2 [Example 202, Trifluoroacetate] )
**A:** 0.30

**Q:** # get_value(readout='log10 of IC50', item= CS(=O)(=O)c1ccc(-c2cccc(Cn3cnn(CC(CN)=C(F)F)c3=O)c2)cc1 [Example 272, Trifluoroacetate] )
**A:** 0.51

**Q:** # get_value(readout='log10 of IC50', item= CS(=O)(=O)n1cc(-c2ccc(Cn3cnn(CC(CN)=C(F)F)c3=O)s2)cn1 [Example 293, Trifluoroacetate] )
**A:** 0.38

====

target_under_test: recombinant human DAO (diamine oxidase) (Homo sapiens, UniProt P19801)
Construct: purchased R&D systems
assay_summary: Activity evaluation on recombinant human DAO (Amplex Red/HRP-coupled assay, 1 mM putrescine substrate)
Type: biochemical
experimental_setup: 1 mM putrescine substrate, read-out: Inhibitory Activity (IC50, nM) DAO
Counter-ions that a name gives are not always drawn.
readout_kind: IC50

Past entries and their recorded results:
Cc1cc(-c2cccc(N3CCNCC3)c2)cnc1-n1cnn(CC(CN)=C(F)F)c1=O [Example 235, Ditrifluoroacetate]    > 100000 nM
NCC(Cn1ncn(Cc2ccccc2-c2ccc(N3CCNCC3)cc2)c1=O)=C(F)F [Example 280, Ditrifluoroacetate]    > 100000 nM
NCC(Cn1ncn(Cc2ccc(-c3cccc(-c4nc[nH]n4)c3)s2)c1=O)=C(F)F [Example 185, Trifluoroacetate]    > 100000 nM

The record that follows has no IC50 shown yet.
**Q:** # get_value(readout='IC50', item= Cc1cc(-c2ccc3cn[nH]c3c2)cnc1-n1cnn(CC(CN)=C(F)F)c1=O [Example 233, Trifluoroacetate] )
**A:** 36000 nM

====

target_under_test: recombinant human DAO (diamine oxidase) (Homo sapiens)
Construct: purchased R&D systems
Sequence (P19801 20-751): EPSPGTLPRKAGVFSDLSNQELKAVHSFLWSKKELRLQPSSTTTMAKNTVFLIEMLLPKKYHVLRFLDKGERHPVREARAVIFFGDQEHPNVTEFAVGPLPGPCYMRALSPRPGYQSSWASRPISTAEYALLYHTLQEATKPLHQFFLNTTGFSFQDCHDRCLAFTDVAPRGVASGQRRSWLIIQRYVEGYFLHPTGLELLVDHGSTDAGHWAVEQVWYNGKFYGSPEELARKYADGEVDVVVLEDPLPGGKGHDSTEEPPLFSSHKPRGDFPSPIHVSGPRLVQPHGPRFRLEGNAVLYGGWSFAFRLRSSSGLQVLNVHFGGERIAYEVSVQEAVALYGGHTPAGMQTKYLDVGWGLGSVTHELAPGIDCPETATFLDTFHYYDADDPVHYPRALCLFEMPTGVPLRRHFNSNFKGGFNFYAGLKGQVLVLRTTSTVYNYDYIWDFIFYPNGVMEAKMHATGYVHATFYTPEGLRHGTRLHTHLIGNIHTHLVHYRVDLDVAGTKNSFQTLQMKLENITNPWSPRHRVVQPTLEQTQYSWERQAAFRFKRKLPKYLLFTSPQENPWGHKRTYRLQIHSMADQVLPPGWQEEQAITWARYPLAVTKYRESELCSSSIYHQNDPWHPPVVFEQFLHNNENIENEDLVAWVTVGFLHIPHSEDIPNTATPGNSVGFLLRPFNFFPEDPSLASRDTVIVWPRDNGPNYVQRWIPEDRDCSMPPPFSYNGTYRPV
assay_summary: Activity evaluation on recombinant human DAO (Amplex Red/HRP-coupled assay, 1 mM putrescine substrate)
Format: biochemical
experimental_setup: 1 mM putrescine substrate, read-out: Inhibitory Activity (IC50, nM) DAO
Where a name gives a salt, the structure may show the parent alone.
Measured IC50, listed per entry for reference.
Numeric answer only, unit nM assumed.

Cc1cc(C#Cc2cnc3c(c2)OCCN3)cnc1-n1cnn(CC(CN)=C(F)F)c1=O [Example 245, ditrifluoroacetate]    14000
NCC(Cn1ncn(Cc2cc(-c3ccc4c(c3)COC(=O)N4)cs2)c1=O)=C(F)F [Example 191, Trifluoroacetate]    4200
Cc1cc(-c2ccc3nonc3c2)cnc1-n1cnn(CC(CN)=C(F)F)c1=O [Example 227, Trifluoroacetate]    4800
CC(=O)c1ccc(-c2cnc(-n3cnn(CC(CN)=C(F)F)c3=O)c(C)c2)s1 [Example 231, Trifluoroacetate]    3910
NCC(Cn1ncn(Cc2ccc(-c3ccc(N4CCNCC4)cc3)cc2)c1=O)=C(F)F [Example 266, Ditrifluoroacetate]    330

**Q:** # get_value(readout='IC50', item= Cc1cc(-c2cccc(Cn3cnn(CC(CN)=C(F)F)c3=O)c2)cc2c1NC(=O)CC2 [Example 275, Trifluoroacetate] )
**A:** 5160

**Q:** # get_value(readout='IC50', item= CS(=O)(=O)c1ccc(-c2ccc3cc(Cn4cnn(CC(CN)=C(F)F)c4=O)sc3c2)cc1 [Example 197, trifluoroacetate] )
**A:** 2400
